I'd be grateful if you could share measured IC50 for these entries.
# System: K562
# experimentSummary: Antiproliferative activity against human K562 cells after 48 hrs by MTT assay
# Type: functional, cell-based
# testContext: K562, 48 h
Answers are plain numbers, in µM.

smilesRepresentation: CC1(C)CCC(C)(C)c2cc(NC(=O)c3ccc(C(=O)O)cc3)ccc21
IC50, µM: 42.4
--
smilesRepresentation: CC1(C)CCC(C)(C)c2cc(NC(=O)c3ccc(C(=O)NCCNC(=O)c4ccc(OCc5c(-c6ccccc6)no[n+]5[O-])cc4)cc3)ccc21
IC50, µM: 13.3

Continue with the compound presented below.
Q: Record request: IC50 value, item C[C@H](NC(=O)c1ccc(C(=O)Nc2ccc3c(c2)C(C)(C)CCC3(C)C)cc1)C(=O)OCc1c(-c2ccccc2)no[n+]1[O-]
A: 60.4

====

Can you tell me pIC50 for the items I'm about to list?
# System: K562
# experimentSummary: Antiproliferative activity against human K562 cells after 48 hrs by MTT assay
# Format: functional, cell-based
# testContext: K562, 48 h
pIC50: −log10 of the molar value.

smilesRepresentation: CC1(C)CCC(C)(C)c2cc(NC(=O)c3ccc(C(=O)OCCCOC(=O)c4ccc(OCc5c(-c6ccccc6)no[n+]5[O-])cc4)cc3)ccc21
pIC50: < 3.00

Dear colleague, could you please provide pIC50 for the compounds listed below?
1. CC1(C)CCC(C)(C)c2cc(NC(=O)c3ccc(C(=O)OCCCCCOC(=O)c4ccc(OCc5c(-c6ccccc6)no[n+]5[O-])cc4)cc3)ccc21
2. CC1(C)CCC(C)(C)c2cc(NC(=O)c3ccc(C(=O)NCC(=O)OCc4c(-c5ccccc5)no[n+]4[O-])cc3)ccc21
3. CC1(C)CCC(C)(C)c2cc(NC(=O)c3ccc(C(=O)OCCCCCCOC(=O)c4ccc(OCc5c(-c6ccccc6)no[n+]5[O-])cc4)cc3)ccc21
4. CC(C)[C@H](NC(=O)c1ccc(C(=O)Nc2ccc3c(c2)C(C)(C)CCC3(C)C)cc1)C(=O)OCc1c(-c2ccccc2)no[n+]1[O-]

A:
< 3.00
5.15
< 3.00
3.72

Q: Give recorded pIC50 with K562 for the following compound: CC1(C)CCC(C)(C)c2cc(NC(=O)c3ccc(C(=O)OCCOC(=O)c4ccc(OCc5c(-c6ccccc6)no[n+]5[O-])cc4)cc3)ccc21
A: < 3.00

====

# Test system: K562
# experimentSummary: Antiproliferative activity against human K562 cells after 48 hrs by MTT assay
# Type: functional, cell-based
# testContext: K562, 48 h
readoutLabel: pIC50
One number for each entry, as −log10 of the molar value.

smilesRepresentation: CC(C)C[C@H](NC(=O)c1ccc(C(=O)Nc2ccc3c(c2)C(C)(C)CCC3(C)C)cc1)C(=O)OCc1c(-c2ccccc2)no[n+]1[O-]
tgt: K562
experimentalResult: 4.19

Continue with the compound presented below.
Q: Name the recorded pIC50 for CC1(C)CCC(C)(C)c2cc(NC(=O)c3ccc(C(=O)N[C@@H](Cc4ccccc4)C(=O)OCc4c(-c5ccccc5)no[n+]4[O-])cc3)ccc21 .
A: 4.65
